A collection of compounds and their measured CC50
assay: Cytotoxicity against mock-infected african green monkey Vero 76 cells after 48 to 96 hrs by MTT assay; type: cell-based; conditions: chlorocebus sabaeus, mock-infected Vero 76 cells

Here is how some compounds turned out for CC50.
[
  {
    "compound": "COc1ccc(Cc2nc3cc(C(F)(F)F)ccc3[nH]2)cc1",
    "valueMeasured": "92 µM"
  },
  {
    "compound": "COc1ccc(-c2nc3cc(Cl)ccc3n2[C@H]2CCCN3CCCC[C@H]23)cc1",
    "valueMeasured": "> 100 µM"
  },
  {
    "compound": "CC(=O)Nc1ccc(Cc2nc3ccccc3[nH]2)cc1",
    "valueMeasured": "> 100 µM"
  },
  {
    "compound": "COc1ccc(Cc2nc3cc(C(F)(F)F)ccc3n2C[C@H]2CCCN3CCCC[C@H]23)cc1",
    "valueMeasured": "> 100 µM"
  },
  {
    "compound": "FC(F)(F)c1ccc2c(c1)nc(-c1ccccc1)n2C[C@@H]1CCCN2CCCC[C@H]12",
    "valueMeasured": "90 µM"
  }
]

Sample Clc1ccc2nc(-c3ccccc3)n([C@@H]3CCCN4CCCC[C@H]34)c2c1 ; CC50 observed: ≥ 100 µM

Sample FC(F)(F)c1ccc2c(c1)nc(Cc1ccc(Cl)cc1)n2C[C@@H]1CCCN2CCCC[C@H]12 ; CC50 observed: > 100 µM

Sample CCCCn1c(-c2ccc(OC)cc2)nc2cc(C(F)(F)F)ccc21 ; CC50 observed: 80 µM

Sample COc1ccc(-c2nc3cc(C(F)(F)F)ccc3n2C[C@H]2CCCN3CCCC[C@H]23)cc1 ; CC50 observed: > 100 µM

Sample CC1(c2nc3cc(Cl)c(Cl)cc3[nH]2)CCC(CO)C(C)(C)O1 (stereo unspecified) ; CC50 observed: > 100 µM

Sample Fc1cccc(F)c1-c1nc2cc(C(F)(F)F)ccc2n1C[C@@H]1CCCN2CCCC[C@H]12 ; CC50 observed: ≥ 100 µM

Sample CC(=O)Nc1ccc(Cc2nc3cc(Cl)c(Cl)cc3[nH]2)cc1 ; CC50 observed: > 100 µM

Sample CC(CC(=O)O)n1c(Cc2ccc(Cl)cc2)nc2ccccc21 (stereo unspecified) ; CC50 observed: > 100 µM

###

tested on: Respiratory syncytial virus; experiment: Antiviral activity against Respiratory syncytial virus infected in african green monkey Vero 76 cells assessed as reduction in plaque number after 5 days by plaque reduction assay; assay type: functional, organism-based; conditions: human respiratory syncytial virus, 120 h
pEC50: −log10 of the molar value.
A collection of molecules and their measured pEC50

[
  {
    "molecule": "Cc1nc2cc(C(F)(F)F)ccc2n1C[C@@H]1CCCN2CCCC[C@H]12",
    "pEC50": "< 4.00"
  },
  {
    "molecule": "Nc1ccc(Cc2nc3cc(C(F)(F)F)ccc3[nH]2)cc1",
    "pEC50": "< 4.00"
  },
  {
    "molecule": "CCN(CC)CCCn1c(Cc2ccc(Cl)c(Cl)c2)nc2cc(C(F)(F)F)ccc21",
    "pEC50": "< 4.00"
  },
  {
    "molecule": "COc1ccc(Cc2nc3cc(C(F)(F)F)ccc3n2C[C@H]2CCCN3CCCC[C@H]23)cc1",
    "pEC50": "< 4.00"
  },
  {
    "molecule": "c1ccc(-n2c(C[C@H]3CCCN4CCCC[C@H]34)nc3ccccc32)cc1",
    "pEC50": 5.15
  }
]

Sample COc1ccc(-c2nc3cc(C(F)(F)F)ccc3n2CCN(C)C)cc1 ; pEC50 observed: < 4.00

Sample Clc1ccc(Cc2nc3cc(Cl)c(Cl)cc3[nH]2)cc1Cl ; pEC50 observed: < 4.00

Sample Clc1ccc(Cc2nc3cc(Cl)c(Cl)cc3n2C[C@@H]2CCCN3CCCC[C@H]23)cc1Cl ; pEC50 observed: 4.92

###

assay: Selectivity index, ratio of CC50 for african green monkey Vero 76 cells to EC50 for Coxsackievirus B5; format: toxicity, cell-based; settings: read-out: Ratio CC50/EC50
A collection of compounds and their measured selectivity ratio

Here is how some compounds turned out for selectivity ratio.
[
  {
    "compound": "Nc1ccc(Cc2nc3cc(C(F)(F)F)ccc3[nH]2)cc1",
    "selectivity ratio": "> 9.09"
  },
  {
    "compound": "C[C@@]1(O)[C@H](O)[C@@H](CO)O[C@H]1n1cnc2c(=O)[nH]c(N)nc21 [2'-B-METHYL-GUANOSINE]",
    "selectivity ratio": "> 5"
  }
]

Sample FC(F)(F)c1ccc2c(c1)nc(CC1CCCC1)n2C[C@@H]1CCCN2CCCC[C@H]12 ; selectivity ratio observed: > 9.09

###

tested on: Respiratory syncytial virus; experiment: Antiviral activity against Respiratory syncytial virus infected in african green monkey Vero 76 cells assessed as reduction in plaque number after 5 days by plaque reduction assay; format: functional, organism-based; conditions: human respiratory syncytial virus, 120 h
endpoint: EC50

Here is how some compounds turned out for EC50.
[
  {
    "compound": "CC(CC(=O)O)n1c(Cc2ccc(Cl)cc2)nc2ccccc21 (centres undefined)",
    "endpoint": "EC50",
    "valueMeasured": "> 100 µM"
  },
  {
    "compound": "CCc1nc2ccccc2[nH]1",
    "endpoint": "EC50",
    "valueMeasured": "> 100 µM"
  },
  {
    "compound": "c1ccc2c(c1)Cn1c(nc3ccccc31)-c1ccccc1-2",
    "endpoint": "EC50",
    "valueMeasured": "9 µM"
  }
]

Sample COc1ccc2c(c1)nnn1c3cc(Cl)c(Cl)cc3nc21 ; EC50 observed: > 100 µM

###

A collection of compounds and their measured selectivity ratio
assay: Selectivity index, ratio of CC50 for african green monkey Vero 76 cells to EC50 for Respiratory syncytial virus; type: toxicity, cell-based; details: read-out: Ratio CC50/EC50

Sample FC(F)(F)c1ccc2c(c1)nc(Cc1ccc(Cl)cc1)n2C[C@@H]1CCCN2CCCC[C@H]12 ; selectivity ratio observed: > 6.67

###

assay: Cytotoxicity against mock-infected human MT4 cells after 96 hrs by MTT assay; type: cell-based
endpoint: log10 CC50 at 96 h (log10 of the value in µM)
Response schema: value (number) is log10 of CC50 at 96 h in units of µM.

Here is how some compounds turned out for log10 CC50 at 96 h.
[
  {
    "compound": "CC1(c2nc3cc(Cl)c(Cl)cc3[nH]2)CCC(CO)C(C)(C)O1 (stereo not drawn)",
    "valueMeasured": 1.52
  },
  {
    "compound": "c1ccc2[nH]c(C[C@@H]3CCCN4CCCC[C@H]34)nc2c1",
    "valueMeasured": 1.23
  },
  {
    "compound": "FC(F)(F)c1ccc2c(c1)nc(Cc1ccc(Cl)c(Cl)c1)n2C[C@H]1CCCN2CCCC[C@H]12",
    "valueMeasured": 0.60
  },
  {
    "compound": "ClC1(Cl)C2CCOC21n1cnc2ccccc21 (stereo not drawn)",
    "valueMeasured": 1.52
  },
  {
    "compound": "Clc1ccc2[nH]c(C[C@@H]3CCCN4CCCC[C@H]34)nc2c1",
    "valueMeasured": 1.72
  },
  {
    "compound": "COc1ccc(Cc2nc3cc(C(F)(F)F)ccc3n2C[C@@H]2CCCN3CCCC[C@H]23)cc1",
    "valueMeasured": 1.89
  },
  {
    "compound": "FC(F)(F)c1ccc2c(c1)nc(-c1ccc(Cl)cc1)n2C[C@@H]1CCCN2CCCC[C@H]12",
    "valueMeasured": 1.38
  }
]

Would you kindly look at the next entry?
Sample FC(F)(F)c1ccc2c(c1)nc(CC1CCCC1)n2C[C@@H]1CCCN2CCCC[C@H]12 ; log10 CC50 at 96 h observed: 1.04

###

assay: Cytotoxicity against mock-infected human MT4 cells after 96 hrs by MTT assay; type: cell-based
A collection of compounds and their measured CC50 at 96 h

Here is how some compounds turned out for CC50 at 96 h.
[
  {
    "compound": "FC(F)(F)c1ccc2c(c1)nc(Cc1ccc(Cl)c(Cl)c1)n2C[C@@H]1CCCN2CCCC[C@H]12",
    "endpoint": "CC50 at 96 h",
    "valueMeasured": "> 100 µM"
  },
  {
    "compound": "Clc1ccc2[nH]c(CCCC3NCC4CC3CN3CCCCC43)nc2c1 (configuration not stated)",
    "endpoint": "CC50 at 96 h",
    "valueMeasured": "51 µM"
  },
  {
    "compound": "c1ccc(-c2nc3ccccc3n2[C@H]2CCCN3CCCC[C@H]23)cc1",
    "endpoint": "CC50 at 96 h",
    "valueMeasured": "> 100 µM"
  }
]

Sample Clc1ccc(Cc2nc3cc(Cl)c(Cl)cc3[nH]2)cc1Cl ; CC50 at 96 h observed: > 100 µM

Sample COc1ccc(-c2nc3cc(C(F)(F)F)ccc3n2C[C@@H]2CCCN3CCCC[C@H]23)cc1 ; CC50 at 96 h observed: 25 µM

Sample CC(CC(=O)O)n1c(Cc2ccc(Cl)cc2)nc2ccccc21 (configuration not stated) ; CC50 at 96 h observed: > 100 µM

Sample Clc1ccc2nc(-c3ccccc3)n([C@@H]3CCCN4CCCC[C@H]34)c2c1 ; CC50 at 96 h observed: > 100 µM

Sample c1ccc2[nH]c(C3CCCCO3)nc2c1 (configuration not stated) ; CC50 at 96 h observed: > 100 µM

Sample c1ccc(Cn2c(-c3ccccc3)nc3ccccc32)cc1 ; CC50 at 96 h observed: 47 µM

Sample Nc1ccc(Cc2nc3cc(C(F)(F)F)ccc3[nH]2)cc1 ; CC50 at 96 h observed: > 100 µM

Sample CC(=O)Nc1ccc(Cc2nc3ccccc3[nH]2)cc1 ; CC50 at 96 h observed: > 100 µM

Sample FC(F)(F)c1ccc2c(c1)nc(C(F)(F)F)n2C[C@@H]1CCCN2CCCC[C@H]12 ; CC50 at 96 h observed: 54 µM

Taken from ChEMBL document CHEMBL3351523.
